// provenance: patent US20090280138A1

t½ half life values by entry
Biological target: T1, MHC class I molecule HLA-A*0201 (iTopia plate-bound monomer) (biotin (bound to streptavidin-coated plate))
T1 construct: also called A2
Assay: iTopia off-rate assay, 37 C; fit R^2 0.85

{"BINDER": "KWMHNIRDA (also called Peptide No 192) [5T4 9-mer peptide 192 KWMHNIRDA]", "t½ half life / h": 1.4}
{"BINDER": "SNHFLYLPR (also called Peptide No 110) [5T4 9-mer peptide 110 SNHFLYLPR]", "t½ half life / h": 1.2}
{"BINDER": "VCDCHMADM (also called Peptide No 149) [5T4 9-mer peptide 149 VCDCHMADM]", "t½ half life / h": 1.4}
{"BINDER": "LSPFAFSGS (also called Peptide No 79) [5T4 9-mer peptide 79 LSPFAFSGS]", "t½ half life / h": 0.4}
